Target: Ribosomal protein S6 kinase alpha-6 (Homo sapiens) (UniProt Q9UK32);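 also: each value is a mean inhibition of RSK4 from a GSK PKIS panel screen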
Sequence (Q9UK32 whole entry): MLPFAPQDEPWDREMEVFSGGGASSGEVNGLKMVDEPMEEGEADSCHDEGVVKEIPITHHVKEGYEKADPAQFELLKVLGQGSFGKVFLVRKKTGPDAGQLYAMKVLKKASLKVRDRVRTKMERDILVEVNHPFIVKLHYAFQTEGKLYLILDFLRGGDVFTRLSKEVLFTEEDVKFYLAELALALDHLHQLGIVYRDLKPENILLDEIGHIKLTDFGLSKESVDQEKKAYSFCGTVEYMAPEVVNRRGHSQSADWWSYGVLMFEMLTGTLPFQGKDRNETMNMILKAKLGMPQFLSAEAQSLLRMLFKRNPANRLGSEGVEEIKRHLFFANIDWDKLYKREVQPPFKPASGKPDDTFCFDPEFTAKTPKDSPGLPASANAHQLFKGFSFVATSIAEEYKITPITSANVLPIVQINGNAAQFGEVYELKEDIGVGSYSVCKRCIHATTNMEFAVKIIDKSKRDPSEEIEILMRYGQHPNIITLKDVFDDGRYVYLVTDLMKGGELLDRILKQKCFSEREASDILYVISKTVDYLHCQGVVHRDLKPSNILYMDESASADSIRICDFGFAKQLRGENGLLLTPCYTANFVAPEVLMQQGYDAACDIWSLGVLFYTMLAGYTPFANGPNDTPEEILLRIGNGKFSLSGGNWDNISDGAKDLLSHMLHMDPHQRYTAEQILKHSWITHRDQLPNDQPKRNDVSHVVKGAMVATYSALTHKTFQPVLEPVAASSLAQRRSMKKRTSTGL
Conditions: at 1 µM
readout-label: inhibition (%)
Return type: number; implicit unit %.

Fill in the blank: the reported inhibition of Fc1cccc(COc2ccc(Nc3ncnc4cc(-c5ccc[nH]5)sc34)cc2Cl)c1 is ____.
2.27

Fill in the blank: the reported inhibition of Cc1cccc(-c2n[nH]cc2-c2ccc3ncccc3n2)n1 is ____.
1.71

Fill in the blank: the reported inhibition of CS(=O)(=O)CCNCc1nc(-c2ccc3ncnc(Nc4ccc(F)c(Cl)c4)c3c2)cs1 is ____.
1.36

Fill in the blank: the reported inhibition of Nc1nc(-c2ccc3c(c2)C(=Cc2cc(Br)c(O)c(Br)c2)C(=O)N3)cs1 is ____.
2.87

Fill in the blank: the reported inhibition of CCN1CCC(CC(=O)Nc2n[nH]c3nc(-c4cccs4)c(Br)cc23)CC1 is ____.
1.64

Fill in the blank: the reported inhibition of CNC(=O)c1cncc(/C=C/c2c(Cl)cccc2Cl)c1 is ____.
1.63

Fill in the blank: the reported inhibition of Nc1nc(-c2ccccn2)c(-c2ccc3ncccc3n2)s1 is ____.
0.55

Fill in the blank: the reported inhibition of COC(=O)Nc1nc2cc(Oc3cccc(NC(=O)Nc4cc(C(F)(F)F)ccc4F)c3)ccc2[nH]1 is ____.
1.04

Fill in the blank: the reported inhibition of COc1ccc(COc2ccc(Cc3cnc(N)nc3N)cc2OC)cc1 is ____.
-0.61

Fill in the blank: the reported inhibition of COc1ccc(-c2ccncc2)cc1C(N)=O is ____.
3.03

Fill in the blank: the reported inhibition of COc1cc2ncn(-c3cc(OCc4ccccc4C(F)(F)F)c(C(N)=O)s3)c2cc1OC is ____.
23.6

Fill in the blank: the reported inhibition of NS(=O)(=O)c1cccc(-c2ccc3c(NC(=O)C4CC4)n[nH]c3c2)c1 is ____.
0.54

Fill in the blank: the reported inhibition of Cc1nn(C)c2cc(N(C)c3ccnc(Nc4cccc(S(N)(=O)=O)c4)n3)ccc12 is ____.
6.01

Fill in the blank: the reported inhibition of COc1ccc(-c2coc3ncnc(N)c23)cc1 is ____.
2.17

Fill in the blank: the reported inhibition of Cc1ccc(C(=O)NC2CCCCC2)cc1-c1ccc(C(=O)NCC2CC2)cc1 is ____.
1.2

Fill in the blank: the reported inhibition of CS(=O)(=O)Nc1ccc(N/C=C2\C(=O)Nc3ccccc32)cc1 is ____.
11

Fill in the blank: the reported inhibition of COc1ccccc1Nc1ncc(-c2ccccc2)o1 is ____.
0.95

Fill in the blank: the reported inhibition of CC1=C(C(=O)Nc2ccc3[nH]ncc3c2)C(c2ccc(Cl)c(Cl)c2)CC(=O)N1 (stereo unspecified) is ____.
5.82

Fill in the blank: the reported inhibition of [O-][S+]1CCN(Cc2ccc(-c3ccc4ncnc(Nc5ccc(OCc6ccccc6)c(F)c5)c4c3)o2)CC1 is ____.
0.29

Fill in the blank: the reported inhibition of CC1=C(C(=O)Nc2ccc3[nH]ncc3c2)C(c2ccc(F)cc2)NC(=O)N1 (stereo unspecified) is ____.
2.82

Fill in the blank: the reported inhibition of CN(C)c1cc2c(Nc3ccc4nc(Cc5ccccc5)[nH]c4c3)ncnc2cn1 is ____.
3.9
